# TARGET_UNDER_TEST: UniProtKB P23458
# Sequence (P23458 whole entry): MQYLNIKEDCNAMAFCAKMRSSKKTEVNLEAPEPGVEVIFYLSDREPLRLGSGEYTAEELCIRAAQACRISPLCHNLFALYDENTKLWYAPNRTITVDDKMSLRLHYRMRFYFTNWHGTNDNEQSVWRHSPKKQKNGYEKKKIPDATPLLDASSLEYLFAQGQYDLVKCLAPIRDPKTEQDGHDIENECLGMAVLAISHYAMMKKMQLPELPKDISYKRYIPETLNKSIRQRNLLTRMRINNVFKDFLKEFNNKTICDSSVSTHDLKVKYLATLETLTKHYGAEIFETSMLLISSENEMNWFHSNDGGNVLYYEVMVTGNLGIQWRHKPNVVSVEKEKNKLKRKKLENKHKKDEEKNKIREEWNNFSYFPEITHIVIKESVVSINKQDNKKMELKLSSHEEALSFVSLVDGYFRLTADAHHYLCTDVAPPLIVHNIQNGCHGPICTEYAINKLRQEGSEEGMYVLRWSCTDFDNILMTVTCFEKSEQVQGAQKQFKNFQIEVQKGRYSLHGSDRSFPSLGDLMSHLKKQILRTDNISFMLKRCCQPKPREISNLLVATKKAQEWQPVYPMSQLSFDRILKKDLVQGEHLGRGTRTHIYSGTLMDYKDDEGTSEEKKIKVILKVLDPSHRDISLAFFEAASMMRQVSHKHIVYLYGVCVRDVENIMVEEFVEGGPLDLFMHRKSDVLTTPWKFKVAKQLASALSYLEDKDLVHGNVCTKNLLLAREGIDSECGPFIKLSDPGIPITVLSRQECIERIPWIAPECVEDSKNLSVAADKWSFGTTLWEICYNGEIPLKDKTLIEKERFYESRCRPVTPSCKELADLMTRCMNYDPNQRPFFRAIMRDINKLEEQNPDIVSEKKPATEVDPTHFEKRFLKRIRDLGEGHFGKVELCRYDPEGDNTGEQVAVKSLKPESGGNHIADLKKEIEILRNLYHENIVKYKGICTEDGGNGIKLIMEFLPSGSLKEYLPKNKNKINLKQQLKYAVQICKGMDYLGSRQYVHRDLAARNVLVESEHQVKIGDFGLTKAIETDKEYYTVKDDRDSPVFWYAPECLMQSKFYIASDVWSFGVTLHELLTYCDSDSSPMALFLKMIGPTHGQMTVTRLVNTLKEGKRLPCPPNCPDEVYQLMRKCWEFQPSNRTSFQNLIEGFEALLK
pIC50: −log10 of the molar value.
EXPERIMENTAL_ENDPOINT: pIC50

(A) Cn1cc(Nc2ncc(Cl)c(NC3CC4CN(S(=O)(=O)NC5CC5)CC4C3)n2)cn1 (stereo not shown)
(B) CCNC(=O)N1CC2CC(Nc3nc(Nc4cnn(C)c4)ncc3Cl)CC2C1 (stereo not shown)
(C) CC(O)Cn1cc(Nc2ncc(Cl)c(NC3CC4CN(S(C)(=O)=O)CC4C3)n2)cn1 (stereo not shown)
Data request: Exam item: list the entries in increasing order of pIC50. Please write the labels in the order that was asked for.
Data returned: B, A, C
(B: 7.92, A: 8.52, C: 9.00)

====

# MEASUREMENT_DESCRIPTION: Pharmacokinetics after intravenous and oral administration in rats
# Format: in vivo
# CONDITION_DETAILS: rat, plasma, iv dosing, dose 1 mg/kg
EXPERIMENTAL_ENDPOINT: AUC(0-t) (ng·h/mL)

CC(O)Cn1cc(Nc2ncc(Cl)c(NC3CC4CN(S(C)(=O)=O)CC4C3)n2)cn1 (centres unmarked) [Ex. 38]
270
CC(=O)N1CC2CC(Nc3nc(Nc4cnn(CC(C)(C)O)c4)ncc3Cl)CC2C1 (centres unmarked) [Ex. 1]
360
CC(C)(O)Cn1cc(Nc2ncc(Cl)c(NC3CC4CN(S(C)(=O)=O)CC4C3)n2)cn1 (centres unmarked) [Ex. 39]
295
CC(C)(O)Cn1cc(Nc2ncc(Cl)c(NC3CCC4(CC3)CCN(S(C)(=O)=O)CC4)n2)cn1 [Ex. 37]
604
Cn1cc(Nc2ncc(Cl)c(NC3CCC4(CC3)CCN(CC(C)(C)O)CC4)n2)cn1 [Ex. 21]
147

====

# MEASUREMENT_DESCRIPTION: Pharmacokinetics after intravenous and oral administration in rats
# Type: in vivo
# CONDITION_DETAILS: rat, plasma, iv dosing, dose 1 mg/kg
EXPERIMENTAL_ENDPOINT: half-life (min)

Cn1cc(Nc2ncc(Cl)c(NC3CC4CN(c5ccc(C#N)nn5)CC4C3)n2)cn1 (stereo not shown)
36.6
CC(C)(O)Cn1cc(Nc2ncc(Cl)c(NC3CC4CN(S(C)(=O)=O)CC4C3)n2)cn1 (stereo not shown)
38.4
Cn1cc(Nc2ncc(Cl)c(NC3CCC4(CC3)CCN(CC(C)(C)O)CC4)n2)cn1
87.6
CC(C)(O)Cn1cc(Nc2ncc(Cl)c(NC3CCC4(CC3)CCN(S(C)(=O)=O)CC4)n2)cn1
75

====

# MEASUREMENT_DESCRIPTION: Pharmacokinetics after intravenous and oral administration in rats
# Format: in vivo
# CONDITION_DETAILS: iv dosing, dose 1 mg/kg
EXPERIMENTAL_ENDPOINT: Clearance (CL) after iv dosing (mL/min/kg)

CCNS(=O)(=O)N1CC2CC(Nc3nc(Nc4cnn(C)c4)ncc3Cl)CC2C1 (stereo not shown)
75.8

(1) CCNS(=O)(=O)N1CC2CC(Nc3nc(Nc4cnn(CC(C)O)c4)ncc3Cl)CC2C1 (stereo not shown)
(2) Cn1cc(Nc2ncc(Cl)c(NC3CC4CN(C(=O)N5CCOCC5)CC4C3)n2)cn1 (stereo not shown)
Data request: Smaller Clearance (CL) after iv dosing value, 1 vs 2 ? Refer to your chosen entry by its label in the reply.
Data returned: 2

The origin of these recorded values is patent US9938257B2.
